Exercise: for every item that follows, state its recorded % inhibition.
System: human PKK mRNA
Experiment: Antisense inhibition of human PKK mRNA in HepaRG cells, 1,000 nM, MOE/deoxy/cEt oligonucleotides (Example 3)
Format: cell-based
Conditions: HepaRG cells, electroporation with 1,000 nM antisense oligonucleotide, approximately 24 hours, primer probe set RTS3454, relative to untreated control cells; experiment of Table 23
Strand notation (5' to 3'): a small letter for the sugar, then the base; units joined by * are phosphorothioate-linked, units joined directly phosphodiester-linked; [ ] holds rarer units or linkages, { } end groups; capitals alone tell only the bases. e = 2'-O-(2-methoxyethyl) (MOE); k = constrained ethyl (cEt); [5mC] = 5-methylcytosine; d = 2'-deoxy (DNA)
Form entry: value (%) — number only.

# return % inhibition of 547964 (antisense eG*eG*kT*dT*d[5mC]*dA*dG*dG*dT*dA*dA*dA*dG*kT*kT*e[5mC]) [compound 547964] (system: human PKK mRNA)
0

Lab note: human PKK mRNA assay, enter % inhibition for 547934 (e[5mC]*eT*k[5mC]*dG*dA*dT*dT*dT*dT*d[5mC]*d[5mC]*dA*dT*kA*k[5mC]*eA; antisense) [compound 547934] here
38

Recall the reported % inhibition of 547976 (antisense e[5mC]*e[5mC]*kA*dA*dA*dG*dT*d[5mC]*dA*dA*d[5mC]*dT*d[5mC]*k[5mC]*k[5mC]*eG) [compound 547976] on human PKK mRNA and write it down.
49

Give reported % inhibition for 547963 (antisense eG*eT*kT*d[5mC]*dA*dG*dG*dT*dA*dA*dA*dG*dT*kT*k[5mC]*eT) [compound 547963] (human PKK mRNA)
22

Report % inhibition from human PKK mRNA testing of 547972 (antisense eT*e[5mC]*kA*dA*d[5mC]*dT*d[5mC]*d[5mC]*d[5mC]*dG*dG*dG*dT*kA*kA*eA) [compound 547972]
49

Provide % inhibition, recorded with human PKK mRNA, of 547962 (antisense eT*eT*kT*dG*d[5mC]*dA*dG*dG*dT*dT*dA*dA*dA*kA*kG*eG) [compound 547962]
16

Give % inhibition for this entry on human PKK mRNA: 547958 (e[5mC]*eA*kG*dG*dT*dT*dA*dA*dA*dA*dG*dG*d[5mC]*kT*kA*eT; antisense) [compound 547958]
57

Answer briefly: % inhibition recorded on human PKK mRNA for 547923 (eA*eT*k[5mC]*dT*dG*dG*dA*dG*dT*dG*dA*dG*dA*kA*k[5mC]*e[5mC]; antisense) [compound 547923]
68

Specify the recorded % inhibition for 547954 (eT*eA*kA*dA*dA*dG*dG*d[5mC]*dT*dA*dT*dA*dT*k[5mC]*k[5mC]*eA; antisense) [compound 547954] , system: human PKK mRNA.
36

Give reported % inhibition for 547961 (eT*eT*kG*d[5mC]*dA*dG*dG*dT*dT*dA*dA*dA*dA*kG*kG*e[5mC]; antisense) [compound 547961] (human PKK mRNA)
5

Name the value of % inhibition reported for 547922 (eT*eG*kG*dA*dG*dT*dG*dA*dG*dA*dA*d[5mC]*d[5mC]*k[5mC]*kT*eG; antisense) [compound 547922] when tested on human PKK mRNA.
79

For human PKK mRNA, give the measured % inhibition of the entry 547989 (antisense e[5mC]*eT*kG*dA*d[5mC]*dA*dG*d[5mC]*dG*dA*dA*dT*d[5mC]*kA*kT*e[5mC]) [compound 547989]
66

State recorded % inhibition with human PKK mRNA, entry 547950 (eG*eG*kT*dG*dT*dT*dT*dT*d[5mC]*dT*dT*dG*dA*kG*kG*eA; antisense) [compound 547950] , no comment.
49

Report % inhibition on human PKK mRNA for this entry: 547980 (antisense eA*eA*kG*dT*d[5mC]*dT*d[5mC]*dT*dT*dG*dG*d[5mC]*dA*kA*kA*e[5mC]) [compound 547980]
54

State % inhibition on human PKK mRNA. Entry: 547935 (eA*e[5mC]*kT*d[5mC]*dG*dA*dT*dT*dT*dT*d[5mC]*d[5mC]*dA*kT*kA*e[5mC]; antisense) [compound 547935]
27

Report value: % inhibition, system: human PKK mRNA, substance: 547943 (eT*eG*kG*dT*dG*dT*dG*d[5mC]*d[5mC]*dA*d[5mC]*dT*dT*kT*k[5mC]*eA; antisense) [compound 547943]
83

Provide measured % inhibition on human PKK mRNA for 547981 (antisense eT*e[5mC]*kT*dT*dT*dG*dT*dG*d[5mC]*dA*dA*dG*dT*k[5mC]*kT*e[5mC]) [compound 547981] please.
76

Name the value of % inhibition reported for 547921 (eT*eG*kA*dG*dA*dA*d[5mC]*d[5mC]*d[5mC]*dT*dG*dG*d[5mC]*kA*kA*e[5mC]; antisense) [compound 547921] when tested on human PKK mRNA.
43

---

Test system: human PKK mRNA
Assay: Antisense inhibition of human PKK mRNA in HepaRG cells, 1,000 nM, MOE/deoxy/cEt oligonucleotides (Example 3)
Assay type: cell-based
Details: Table 21 experiment; HepaRG cells, electroporation with 1,000 nM antisense oligonucleotide, approx. 24 hours; PKK mRNA by RT-PCR (RTS3454), relative to untreated control cells
Strand notation (5' to 3'): a small letter for the sugar, then the base; units joined by * are phosphorothioate-linked, units joined directly phosphodiester-linked; [ ] holds rarer units or linkages, { } end groups; capitals alone tell only the bases. e = 2'-O-(2-methoxyethyl) (MOE); k = constrained ethyl (cEt); [5mC] = 5-methylcytosine; d = 2'-deoxy (DNA)
Could you please report measured % inhibition for the items listed next?
Your answer should be a plain number; it is taken to be in %.

Provide % inhibition, system human PKK mRNA, entry 547827 (eG*eT*kT*d[5mC]*dG*dA*dT*dG*dT*dA*d[5mC]*dT*dT*kT*kT*eG; antisense) [compound 547827]
47

Supply % inhibition measured with human PKK mRNA for 547789 (antisense eG*eA*kA*dA*dT*dA*dA*dG*dT*dT*dG*d[5mC]*dT*kT*kG*e[5mC]) [compound 547789] .
20

Supply % inhibition measured with human PKK mRNA for 547755 (eT*eA*kA*dA*dA*dA*dT*dG*dA*dA*d[5mC]*dG*dG*kT*k[5mC]*eT; antisense) [compound 547755] .
0

Name the recorded % inhibition of 547826 (eT*eT*k[5mC]*dG*dA*dT*dG*dT*dA*d[5mC]*dT*dT*dT*kT*kG*eG; antisense) [compound 547826] , assay system human PKK mRNA.
31

# return % inhibition of 547783 (antisense e[5mC]*eA*k[5mC]*dA*dA*dT*dT*dG*d[5mC]*dT*dT*d[5mC]*dT*kT*kG*eG) [compound 547783] (system: human PKK mRNA)
48

Specify % inhibition for 547825 (eT*e[5mC]*kG*dA*dT*dG*dT*dA*d[5mC]*dT*dT*dT*dT*kG*kG*e[5mC]; antisense) [compound 547825] , system human PKK mRNA.
59

Answer briefly: % inhibition recorded on human PKK mRNA for 547833 (eA*eA*k[5mC]*dT*dG*d[5mC]*dA*d[5mC]*d[5mC]*dT*dG*dT*dT*k[5mC]*kG*eA; antisense) [compound 547833]
40

Name the recorded % inhibition of 547794 (antisense eT*e[5mC]*kA*dT*dA*dG*dA*dG*dT*dT*dG*dA*dG*kT*k[5mC]*eA) [compound 547794] , assay system human PKK mRNA.
49

Using human PKK mRNA as the test system, report measured % inhibition of 547822 (eG*e[5mC]*kA*dA*d[5mC]*d[5mC]*dA*dA*dA*d[5mC]*d[5mC]*dT*dT*kT*kT*e[5mC]; antisense) [compound 547822] .
71

Report its % inhibition with human PKK mRNA as the test system: 547785 (antisense eG*eT*kT*dG*d[5mC]*dT*dT*dG*d[5mC]*dT*dT*dG*dA*kA*kT*eA) [compound 547785]
48

Enter % inhibition (test system human PKK mRNA) for 547821 (e[5mC]*eA*kA*dA*d[5mC]*d[5mC]*dT*dT*dT*dT*d[5mC]*dT*d[5mC]*k[5mC]*kA*eT; antisense) [compound 547821]
44

Report value only: % inhibition, human PKK mRNA, 547820 (eT*e[5mC]*kA*dT*dT*dG*dA*dT*dT*dG*dA*dA*d[5mC]*kT*kT*eG; antisense) [compound 547820]
0

Give the observed % inhibition of 547751 (eT*eG*kA*dA*d[5mC]*dG*dG*dT*d[5mC]*dT*dT*d[5mC]*dA*kA*kG*e[5mC]; antisense) [compound 547751] for human PKK mRNA.
0

State % inhibition on human PKK mRNA. Entry: 547804 (eG*eT*kG*dT*dA*d[5mC]*dA*dT*dG*dG*dA*dA*dG*k[5mC]*kT*eA; antisense) [compound 547804]
22
